- tgt: T1, human CTLA-4 on transfected CHO-K1 cells (human, UniProt P16410 36-223)
- T1 construct: whole, on cells; also called CHO: CTLA-4; human CTLA-4 expressing CHO cells
- protocol: FACS competition: inhibition of 20 nM biotinylated CD80/B7.1 binding to CTLA-4-transfected CHO-K1 cells
Checkbox rule: EC50 lower than 8 nM = Y; EC50 not lower than 8 nM = N.

Query block: Field: below-cutoff. Rule: recorded EC50 strictly less than 8 nM. Subject: lipocalin mutein SEQ ID NO: 61 (designed binder) QDSTSDLIPAPPLSKVPLQQNFQDNQFQGKWYVVGLAGNRILRLDQHPMPMYATIYELKGDKSYNVTSVISSHKKCLYPIATFVPGSQPGEFTLGNIRSYGDKTSYLVRVVSTDYNQYAVVFFKHADTNYESFSITIYGRTKELASELKENFIRFSKSLGLPENHIVFPVPIDQCIDG
Result block: N

Query block: In the record for lipocalin mutein SEQ ID NO: 66 (designed binder) QDSTSDLIPAPPLSKVPLQQNFQDNQFQGKWYVVGLAGNRILRLDQHPMPMYATIYELKEDKSYQVTSVISSHKKCLYPIATFVPGSQPGEFTLGNIRSYGDKTSYLVRVVSTNYNQHAMVFFKHADTNYESFSITLYGRTKELTSELKENFIRFSKSLGLPENHIVFPVPIDQCIDGSAWSHPQFEK , is EC50 less than 8 nM?
Result block: Y

Query block: Could you please tell me whether EC50 recorded for CTLA-4 specific lipocalin mutein (SEQ ID NO: 4) (designed binder, hNGAL (lipocalin 2) mutein) QDSTSDLIPAPPLSKVPLQQNFQDNQFHGKWYVVGLAGNRILRDDQHPMPMYATIYELKGDKSYNVTSVISSHKKCLYPIATFVPGSQPGEFTLGNIKSYGDKWSYLVRVVSTDYNQYAVVFFKHADSNYESFSITIYGRTKELASELKENFIRFSKSLGLPENHIVFPVPIDQCIDG is less than 8 nM?
Result block: Y

Query block: Given lipocalin mutein SEQ ID NO: 62 (designed binder) QDSTSDLIPAPPLSKVPLQQNFQDNQFQGKWYVVGLAGNRILRDDQHPMPMYATIYELKGDKSYNVTSVISSHKKCLYPIATFVPGSQPGEFTLGNIKSYGDKWSYLVRVVSTDYNQYAVVFFKHADSNYESFSITIYGRTKELASELKENFIRFSKSLGLPENHIVFPVPIDQCIDG , is recorded EC50 strictly lower than 8 nM?
Result block: Y

Query block: Find out if reported EC50 for lipocalin mutein SEQ ID NO: 94 (designed binder) QDSTSDLIPAPPLSKVPLQQNFQDNQFQGKWYVVGLAGNRILRQDQHPMPMYATIYELKEDKSYQVTSVISSHKKCLYPIATFVPGSQPGEFTLGNIKSYGDKVSYLVRVVSTNYNQHAMVFFKYADRNFESFSITLYGRTKELTSELKENFIRFSKSLGLPENHIVFPVPIDQCIDG is less than 8 nM
Result block: N
